// provenance: paper PMC10397247

# tgt: T1, 4H906-AA
# T1 chain: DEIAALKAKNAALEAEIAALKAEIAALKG
# protocolDescription: two-hybrid library CCmax;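 further: natural log of median RNA to DNA barcode read ratio; higher means stronger binding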
# runConditions: mean of both orientations
assayEndpoint: interaction score
Format: numeric value only, no unit, no commentary.

Reference set, count: 3
INSERT INTO assay_data (binder, measurement) VALUES
  ('DKIAALEAEIAALEAENAALKAKIAALKG [4H2078-AA]', -0.59),
  ('DKIAALEAKNAALKAEIAALKAEIAALEG [4H2505-AA]', 0.636),
  ('DEIAALEAENAALKAKIAALKAEIAALKG [4H234-AA]', 0.324);

With those in mind, consider the next binder.
Answer with the recorded interaction score of DKIAALKAENAALEAKIAALKAEIAALEG [4H2729-AA] only.
1.15
